# method.description: activators of LNCaP prostate cell differentiation, primary screen, flow cytometry side scatter (AID 795);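 also: androgen-responsive LNCaP prostate cancer cells in charcoal-stripped serum medium; percent of cells past a gate set so DMSO wells show 10% shift; higher shift means more granular cells and more differentiation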
# protocol.conditions: 4 d, at 10 µM, stronger effect = higher value
The whole screen tested about 24,000 compounds, of which about 130 (0.54%) were called active. The full list was thinned out, with actives kept by preference.

- compound: "COc1cc2[nH]c(=O)n(CCC(=O)NC3CCN(Cc4ccccc4)CC3)c(=O)c2cc1OC"
  side scatter shift, %: 2
- compound: "CCn1c(SCC(=O)Nc2ccc3c(c2)OCCO3)nc2c(c1=O)SC(C)C2 (configuration not stated)"
  side scatter shift, %: 8
- compound: "Cn1c(=O)cc(SCC(=O)N2CCCC2)c2cc(Cl)ccc21"
  side scatter shift, %: 9
- compound: "CCOC(=O)CSc1nc2c(c(=O)n(C)c(=O)n2C)n1Cc1ccccc1F"
  side scatter shift, %: 11
- compound: "O=C(NCCc1ccc(Cl)cc1)C1CC(=O)N(C2CCCCC2)C1 (configuration not stated)"
  side scatter shift, %: 24
- compound: "Cc1nn(Cc2ccc(Cl)c(Cl)c2)c(C)c1NC(=O)c1cc(C2CC2)on1"
  side scatter shift, %: 13
- compound: "Cc1ccc(C(c2sc3nc(C)nn3c2O)N2CCN(c3ccccc3)CC2)cc1 (configuration not stated)"
  side scatter shift, %: 10
